# testProtocol: Cell viability test (MTT assay)
# Assay type: cell-based
# settings: human, hMSC (3A6) cells; day 5, hMSC (3A6); read-out: Survival rate
readoutType: viability at 120 h, 0.5 wt % (%)
Form entry: value (%) — number only.

[ask] Request the reported viability at 120 h, 0.5 wt % associated with O=C(Cc1c(F)c(F)c(F)c(F)c1F)N[C@@H](Cc1ccccc1)C(=O)N[C@@H](Cc1ccccc1)C(=O)O
[reply] 73.3

* * *

# testProtocol: Cell viability test (MTT assay)
# Type: cell-based
# settings: human, hMSC (3A6) cells; day 1, hMSC (3A6), hydrogels under neutral conditions; read-out: Survival rate
readoutType: viability at 24 h, 0.5 wt % (%)
Form entry: value (%) — number only.

[ask] Request the reported viability at 24 h, 0.5 wt % associated with O=C(Cc1c(F)c(F)c(F)c(F)c1F)N[C@@H](Cc1ccccc1)C(=O)N[C@@H](Cc1ccccc1)C(=O)O
[reply] 84

Data provenance: patent US11690935B2
